TARGET OR SYSTEM: MAST2, Q6P0Q8
Sequence (Q6P0Q8 1099-1202): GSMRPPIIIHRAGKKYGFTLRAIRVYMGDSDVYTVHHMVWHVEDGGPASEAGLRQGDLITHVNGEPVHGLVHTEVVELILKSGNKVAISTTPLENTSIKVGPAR
METHOD DESCRIPTION: holdup assay
Parameters: key: below the threshold = too weak to quantify, mostly under pKd 3.1 to 4
TEST PARAMETERS: plain residues with an end cap or a label only (N-terminal biotin on a linker: ado-ado)
MEASUREMENT KIND: pKd

Answered cases to consult:
EPQYQPGENL [SRC, P12931] = below the threshold
NTANRRTTPV [CACNG2, Q9Y698] = 4.52
KPGKGSETVV [FZD4, Q9ULV1] = 4.91
PYSESDDDWC [CACNA1A, O00555] = below the threshold
EDPRVEVTQF [SLC22A9, Q8IVM8] = 5.4
KKMLQRRTLL [OR8G1, Q15617] = 5.13
TNSRHGETTV [FZD2, Q14332] = 5.05
NISYRRESAI [KCNJ4, P48050] = 4.72

Query: pKd; subject: DTKNYKQTSV [CRIPT, Q9P021]
5.35

Again, but for QLSFNTDTLC [ABCA2, Q9BZC7]
4.79

Again, but for SFISKKEWYV [NECTIN1, Q15223]
4.44
